B1: FCHSD1 (parent)
chain: LQEPGVFSPTPPQQFQPAGTDQVC

Variants of: B1
method notes: protein stability index of a GFP-peptide fusion (GPS, HEK-293T) (PSI 1-6); higher = more stable;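 further: lentivirally expressed fusions sorted by FACS into six bins by GFP to DsRed ratio, PSI derived from sequencing read proportions per bin multiplied by bin number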
measurement conditions: c terminus: a fixed tail appended
# if value of protein stability index reaches 4, tag Yes; if it stays below, tag No

# var, cat
rows = [
    ("T10L", "Yes"),
    ("P11W", "No"),
    ("Q13V", "Yes"),
    ("T10R", "No"),
    ("P11F", "No"),
    ("P9S", "Yes"),
    ("P9D", "Yes"),
    ("P11K", "No"),
    ("P11G", "Yes"),
    ("P11Q", "Yes"),
    ("T10G", "Yes"),
    ("Q13W", "No"),
    ("P9Q", "Yes"),
    ("P12D", "Yes"),
    ("P11D", "Yes"),
    ("P12E", "Yes"),
    ("T20L", "No"),
    ("P12S", "Yes"),
    ("P11S", "No"),
]
